Please respond with reported melting point for every item in the list.

[
  {
    "compound": "Cc1cnc2c(=O)[nH]c3ccccc3n12",
    "melting point": "> 300 °C"
  },
  {
    "compound": "Cc1cc(-c2nnc3c4ccccc4c(OCc4ccncc4)nn23)no1",
    "melting point": "244 to 246 °C"
  }
]

Kindly give each listed record's melting point.
1. CCOC(=O)C(C)n1c(-c2ccc(Cl)cc2)nc2cccnc21 (configuration not stated)
2. COC(=O)c1c(Cc2ccc(C(=O)NC(C)(C)CC(=O)N(C)C)cc2)c(=O)c2ccc(Cl)cc2n1-c1ccccc1
3. N#Cc1ccc(-c2cn(-c3ccc(I)cc3)c(SCC(O)CO)n2)cc1 (configuration not stated)

103 to 106 °C
84.1 to 95.5 °C
160 to 174 °C

Kindly give each listed record's melting point.
1. CC(=O)C1(OC=O)CCC2C3CCC4=CC(=O)C=CC4(C)C3CCC21C (configuration not stated)
2. COC(=O)c1cc(-c2nnn(C)n2)c(C(=O)OC)s1

201 to 205 °C
121 to 122 °C

---

Please respond with reported melting point for every item in the list.

Recorded results for 2 compounds are shown here.
[
  {
    "smiles-entry": "CCn1c(=O)[nH]c(=O)c2nc(-c3ccc(/C=C/C(=O)O)cc3)[nH]c21",
    "value-measured": "> 300 °C"
  },
  {
    "smiles-entry": "CN1C(=O)CC[C@]2(C)c3ccc(CC(=O)Nc4ccccc4)cc3CC[C@@H]12",
    "value-measured": "192 to 195 °C"
  }
]

Consider the record given below.
Fill blank: measured melting point of the compound CC(=NNC(=S)NCCN1CCOCC1)c1ccccn1 is ____.
168 to 169 °C

---

Please respond with reported melting point for every item in the list.

[
  {
    "molecule": "CNC(=O)c1ccc(C=CC(=O)NCC(=O)N(C)c2ccc(Cl)c(CO)c2Cl)cc1",
    "melting point": "207 to 211 °C"
  },
  {
    "molecule": "Cc1ccccc1CNc1cc(C(=O)N(C)C)cc2c1nc(C)n2C",
    "melting point": "158 to 159 °C"
  },
  {
    "molecule": "O=[N+]([O-])C=C1NCCN1Cc1ccno1",
    "melting point": "156 to 158 °C"
  }
]

Kindly give each listed record's melting point.
1. Cc1cccc(N2CCN(CCc3ccc(N4CCCNC4=O)cc3)CC2)c1
2. COC(=O)C1=C(Cl)C(=NO)CC(c2ccc(Cl)c(OC)c2F)N1 (stereo not drawn)
3. N#Cc1cccc2[nH]c(C(=O)O)cc(=O)c12
4. CCOC(=O)c1cn(C2CN(C(c3ccccc3)c3ccccc3)C2)c2cc(F)c(F)cc2c1=O
5. CC(c1cccnn1)c1cccc(Cl)c1Cl (stereo not drawn)
6. COC(=O)CCc1oc(-c2ccc3c(c2)OCO3)nc1-c1ccc(Cl)cc1
7. c1csc(-c2nc3cc(COc4ccc(CCCCn5ccnc5)cc4)ccc3o2)c1

1: 213 °C; 2: 174 to 176 °C; 3: 278 to 279 °C; 4: 196 to 201 °C; 5: 96 to 98 °C; 6: 123 to 124 °C; 7: 130 to 131 °C

Kindly give each listed record's melting point.
1. Nc1ccc(F)c(NC(=O)C(F)(F)F)c1
2. CN1CCN(c2ccccc2CC2CCN(c3ccccc3)C2=O)CC1 (stereo not drawn)

1: 116 to 118 °C; 2: 104 to 106 °C

Kindly give each listed record's melting point.
1. COc1ccc2nc(Cl)c(OC)nc2c1
2. CC(=O)Nc1cccc(Sc2c(Cc3cccc4ccccc34)sc3c2c(=O)n(C)c(=O)n3CC(C)C)c1
3. CCCCCCCCCCCCCCCCCC(=O)Nc1cccc(N(CC(=O)O)CC(=O)O)c1
4. CC(C)Cc1c2c(nn1Cc1ccccc1)c(N)nc1ccccc12
5. CN1C(=O)C(=O)c2cc(I)ccc21
6. O=C(OSc1ccccn1)c1ccc(Cc2ccc(F)cc2)o1
7. O=C(Nc1cccc(C2CN3CCSC3=N2)c1)c1ccc(Br)nc1 (stereo not drawn)
8. O=c1n(CCCCCl)nc2n1-c1ccccc1OC2

1. 79 to 81 °C
2. 173 to 174 °C
3. 135 to 140 °C
4. 194 to 196 °C
5. 160 to 162 °C
6. 88 to 89 °C
7. 149 to 153 °C
8. 56 to 57 °C

---

property-measured: melting point

[
  {
    "compound": "N#Cc1ccc(NC(=O)OC2CN3CCC2CC3)cc1 (centres undefined)",
    "melting point": "180 to 182 °C"
  },
  {
    "compound": "CCCCCCCCCCCCCCCCCCOc1cc(OC(=O)C(c2ccccc2)c2ccccc2)cc(C(=O)O)c1",
    "melting point": "82 to 86 °C"
  },
  {
    "compound": "CC(Cc1ccc(OCc2ccccc2)cc1)NC(=O)CC(c1ccccc1)c1ccccc1 (centres undefined)",
    "melting point": "121 to 125 °C"
  }
]

Consider the record given below.
Fill blank: measured melting point of the compound C=C(C)COC(=O)N1CCN(c2c(C(=O)N3CCN(C)CC3)c3ccccc3n2-c2ccccc2)CC1 is ____.
141 to 143 °C

---

Please respond with reported melting point for every item in the list.

[
  {
    "compound": "C=C(C)C(=O)NCCCC(=O)Nc1cc(Cl)c(C)c(Cl)c1O",
    "value-measured": "119 to 121 °C"
  },
  {
    "compound": "CCOc1ccc(C2=NNC(=O)[C@H]3CCCC[C@@H]23)cc1OCC (relative stereo)",
    "value-measured": "156 to 157 °C"
  }
]

Consider the record given below.
Fill blank: measured melting point of the compound Cc1ccc(Cl)cc1S(N)(=O)=O is ____.
142 to 145 °C

---

Please respond with reported melting point for every item in the list.

Recorded results for 3 molecules are shown here.
[
  {
    "molecule": "CC(CO)C1CCC2C3CCC4=CC(=O)CCC4(C)C3CCC12C (centres undefined)",
    "melting point": "140 to 141 °C"
  },
  {
    "molecule": "O=c1c2c(Cc3ccccc3C(F)(F)F)n[nH]c2c2cccnc2n1-c1ccccc1",
    "melting point": "292 to 294 °C"
  },
  {
    "molecule": "COCC(Cl)C(=O)Nc1c(C(=O)CC(=O)Nc2nccs2)cccc1C(F)(F)F (centres undefined)",
    "melting point": "190 °C"
  }
]

Kindly give each listed record's melting point.
1. CCCC(CCC)C(=O)NC(=O)CN
2. COc1ccc(C2CC(=O)N(C(=O)Nc3ccc(F)cc3)N2C)cc1OC1CCCC1 (centres undefined)
3. Cc1c(C(=O)Nc2ccc(N3CCNCC3)c(C#N)c2)cnn1-c1ccc(F)cc1
4. CC(C)N1CCN(c2ccc(-c3[nH]nc4c3C(=O)c3c(NC(=O)NN5CCOCC5)cccc3-4)cc2)CC1
5. CCCOc1cc(=O)n(CCC)c(=O)n1Cc1ccc(-c2ccccc2C2NOC(=O)N2)cc1 (centres undefined)
6. CCCCCCCCCCCCCCCCOC(=O)OC(C)=CC(C)=O

["127 °C", "123 to 124 °C", "218 to 219 °C", "253 °C", "129 to 132 °C", "33 to 35 °C"]

---

property-measured: melting point

Recorded results for 3 compounds are shown here.
[
  {
    "compound": "CCOC(=O)c1c(Nc2ccncc2)c2ccc(Cl)cc2n1CC(=O)N(CC)CC",
    "melting point": "212 to 214 °C"
  },
  {
    "compound": "COc1ccc(NC(=O)c2ccc(-c3ccc(-c4noc(C)n4)cc3)cc2)cc1N1CCN(C)CC1",
    "melting point": "135 to 137 °C"
  },
  {
    "compound": "c1ccc2c(OC[C@H]3CCCN3c3ncnc4[nH]cnc34)ccc(CN3CCOCC3)c2c1",
    "melting point": "134 to 138 °C"
  }
]

Kindly give each listed record's melting point.
1. Cc1cc(C(=O)N2Cc3ccc(C(=O)N(CCCN(C)C)CCCN(C)C)n3Cc3ccccc32)ccc1-c1ccccc1C(F)(F)F
2. CCCCCCCNC(=O)N(C)c1cccc(-c2ccc(C=C(C)C(=O)O)cc2)c1
3. CC(C)(C)OC(=O)N1CCNC(=O)C1Cc1ccc(OCc2ccccc2)cc1 (stereo unspecified)

["55 to 64 °C", "79 °C", "145 to 147 °C"]

Kindly give each listed record's melting point.
1. CSc1sc(C(=O)N(C)C2CCCCC2)c2c1-c1oncc1C(C)(C)C2
2. CN(CC(=O)O)c1ccc(C#N)cc1
3. COc1ccc2ccc(OC)c(C=O)c2c1
4. C=CC[C@@]1(NC(=O)OC(C)(C)C)C(=O)[C@@H](C(C)C)N(C(=O)OC(C)(C)C)C1=O
5. O[C@@H]1c2ccccc2C=C[C@H]1NCc1ccccc1 (relative stereo)

150 to 153 °C
64.5 °C
94 °C
83 °C
125 to 126 °C

Data provenance is a melting point compilation (Tetko et al.; mined from patent text by program, amines drawn as free bases though some values may be those of a salt).
